Values from patent US20210246502A1

- Test system: S. pneumoniae
- experiment: Resistance categories of pneumococcal RASE database isolates (MIC vs EUCAST breakpoints, ancestral state reconstruction)
- Type: cell-based, Streptococcus pneumoniae
- reportedConditions: out of all 616 pneumococcal isolates; includes categories inferred by ancestral state reconstruction
Would you please tag the item y when its number of isolates susceptible is 500 or above, and n when it is below?

Kindly determine if number of isolates susceptible recorded for CC1(C)S[C@@H]2[C@H](NC(=O)Cc3ccccc3)C(=O)N2[C@H]1C(=O)O [benzylpenicillin] is above or exactly 500.
n

Kindly determine if number of isolates susceptible recorded for CN(C)[C@@H]1C(O)=C(C(N)=O)C(=O)[C@@]2(O)C(O)=C3C(=O)c4c(O)cccc4[C@@](C)(O)[C@H]3C[C@@H]12 [tetracycline] is above or exactly 500.
y

Kindly determine if number of isolates susceptible recorded for CC[C@H]1OC(=O)[C@H](C)[C@@H](O[C@H]2C[C@@](C)(OC)[C@@H](O)[C@H](C)O2)[C@H](C)[C@@H](O[C@@H]2O[C@H](C)C[C@H](N(C)C)[C@H]2O)[C@](C)(O)C[C@@H](C)C(=O)[C@H](C)[C@@H](O)[C@]1(C)O [erythromycin] is above or exactly 500.
n

Kindly determine if number of isolates susceptible recorded for COc1cc(Cc2cnc(N)nc2N)cc(OC)c1OC [trimethoprim, Trimethoprim] is above or exactly 500.
n
